- Tested on: Rattus norvegicus
- Test: Volume of distribution at steady state in Lewis rat at 1 mg/kg, iv
- Assay type: ADME, organism-based
- Design: dose 1 mg/kg, route intravenous
- Measurement Conditions: in vivo
Reported Property: Vdss (L/kg)

Molecule: Cc1c(F)cc(C(=O)NC2CC2)cc1-c1ccc(C(=O)NCC(C)(C)C)cn1 [LOSMAPIMOD]
Tested Target: Rattus norvegicus
Observed: 0.9

###

- Test: Clearance in Lewis rat at 1 mg/kg, iv
- Type: ADME, organism-based
- Set-up: dose 1 mg/kg, route intravenous
- Measurement Conditions: Lewis, in vivo

Chemical String: Cc1c(F)cc(C(=O)NC2CC2)cc1-c1ccc(C(=O)NCC2CC2)cn1
clearance: 2.5 mL/min/kg

Origin of the recorded values: ChEMBL document CHEMBL1781916
